molecular target: UniProtKB C7C422; experiment: biochemical; type: biochemical; details: NDM-1 enzyme, CCF2-FA fluorescence assay; read-out: NDM-1 IC50
Sequence (C7C422 whole entry, looked up, species assumed): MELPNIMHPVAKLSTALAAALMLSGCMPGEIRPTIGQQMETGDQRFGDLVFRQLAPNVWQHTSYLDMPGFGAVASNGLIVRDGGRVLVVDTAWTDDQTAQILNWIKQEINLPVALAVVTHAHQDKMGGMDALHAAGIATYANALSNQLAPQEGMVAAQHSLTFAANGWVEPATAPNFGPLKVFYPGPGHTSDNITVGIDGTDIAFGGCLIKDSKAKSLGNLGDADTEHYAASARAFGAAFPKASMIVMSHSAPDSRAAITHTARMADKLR
Reported pIC50 values are given for each entry in this list.
Lab note — pIC50 values are minus log10 of concentrations in M.

Examples with answers:
- NS(=O)(=O)c1cccc(-c2cnc3ccccn23)c1-c1nnn[nH]1: 9.09
- CN(CC(=O)O)Cc1ccc(-c2cccc(S(N)(=O)=O)c2-c2nnn[nH]2)cc1: 8.04
- CNC(=O)CNCc1ccc(-c2cccc(S(N)(=O)=O)c2-c2nnn[nH]2)cc1: 8.07
- CN1CCC(NCc2ccc(-c3cccc(S(N)(=O)=O)c3-c3nnn[nH]3)cc2)C1 (centres unmarked): 7.94
- NS(=O)(=O)c1cccc(-c2ccc(CNC3CCNC3=O)cc2)c1-c1nnn[nH]1 (centres unmarked): 8.37
- NS(=O)(=O)c1cccc(C(=O)O)c1-c1nn[nH]n1: 5.61
- CC(O)C1CCN(c2ccnc(S(N)(=O)=O)c2-c2nnn[nH]2)CC1 (centres unmarked): 7.29
- N=C(N)NCc1ccc(-c2ccc(C(F)(F)F)c(S(N)(=O)=O)c2-c2nn[nH]n2)cc1: 8.41
- NS(=O)(=O)c1nccc(N2CCCC(Cc3cccnc3)C2)c1-c1nnn[nH]1 (centres unmarked): 7.17
- CCN1CCC(NCc2ccc(-c3cccc(S(N)(=O)=O)c3-c3nnn[nH]3)cc2)CC1: 7.42

// field: pIC50; key: NS(=O)(=O)c1cccc(-c2ccc(C(O)CO)cc2)c1-c1nn[nH]n1 (centres unmarked) ; value = 7.72

// field: pIC50; key: `N=C(N)c1nc2c(-c3ccc(C(F)(F)F)c(S(N)(=O)=O)c3-c3nnn[nH]3)cccc2s1` ; value = 9.05

// field: pIC50; key: `Cc1ccc(C(F)(F)F)c(S(N)(=O)=O)c1-c1nnn[nH]1` ; value = 6.99

// field: pIC50; key: `Cc1ccc(-c2cccc(S(N)(=O)=O)c2-c2nnn[nH]2)nc1` ; value = 7.37

// field: pIC50; key: `CC1(C)CCN(Cc2ccc(-c3cccc(S(N)(=O)=O)c3-c3nnn[nH]3)cc2)C1` ; value = 7.93

// field: pIC50; key: NS(=O)(=O)c1cccc(-c2ccc(CN3CCCC3CO)cc2)c1-c1nnn[nH]1 (centres unmarked) ; value = 7.84

// field: pIC50; key: `NS(=O)(=O)c1cccc(-c2cnc(N3CCNCC3)nc2)c1-c1nn[nH]n1` ; value = 7.84

* * *

target: IMP-1 (Serratia marcescens, UniProt P52699); assay: biochemical; type: biochemical; conditions: IMP-1 enzyme, CCF2-FA substrate; read-out: IMP-1 IC50
Sequence (P52699 whole entry, looked up): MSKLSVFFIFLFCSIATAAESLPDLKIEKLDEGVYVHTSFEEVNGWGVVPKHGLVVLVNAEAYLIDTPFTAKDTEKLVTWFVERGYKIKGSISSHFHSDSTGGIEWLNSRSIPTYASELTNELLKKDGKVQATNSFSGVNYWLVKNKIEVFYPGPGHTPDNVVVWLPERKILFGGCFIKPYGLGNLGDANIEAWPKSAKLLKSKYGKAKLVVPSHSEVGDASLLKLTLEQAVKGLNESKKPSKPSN
Reported pIC50 values are given for each entry in this list.
Lab note — pIC50 values are minus log10 of concentrations in M.

• NCCN[C@H]1CC[C@H](c2ccc(C(F)(F)F)c(S(N)(=O)=O)c2-c2nnn[nH]2)CC1 = 7.78
• Nc1ncc2cccc(-c3ccc(C(F)(F)F)c(S(N)(=O)=O)c3-c3nn[nH]n3)c2n1 = 8.71
• NS(=O)(=O)c1c(C(F)(F)F)ccc(-c2ccc(C3CCN(C[C@H]4CCCN4)CC3)cc2)c1-c1nnn[nH]1 = 8.71

Read the next record carefully.
// field: pIC50; key: `NS(=O)(=O)c1c(C(F)(F)F)ccc(N2C[C@H](O)C[C@@H](O)C2)c1-c1nnn[nH]1` ; value = 6.82
